B1: scFv; the commonest letter at each place (parent)
chain 1: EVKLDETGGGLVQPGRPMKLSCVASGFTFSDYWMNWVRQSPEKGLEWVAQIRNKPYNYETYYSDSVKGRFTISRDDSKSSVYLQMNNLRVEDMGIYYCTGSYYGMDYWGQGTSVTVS
chain 2: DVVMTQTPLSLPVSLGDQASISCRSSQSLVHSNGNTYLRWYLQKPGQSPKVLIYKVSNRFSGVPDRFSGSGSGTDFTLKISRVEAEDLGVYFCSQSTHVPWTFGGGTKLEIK

- Variants of: B1
- Method: yeast surface expression (ratio to wild type); higher = more expressed
- Condition Summary: format: scFv 4-4-20, heavy + light
Please provide measured yeast surface expression for the entries that follow.
One number for each entry.

{"columns": ["Mutation List", "Measured Metric", "Recorded Number"],
 "data": [
  ["chain 1 D106Q Y107I", "yeast surface expression", 0.712],
  ["chain 1 Y103K G104I", "yeast surface expression", 0.711],
  ["chain 1 M34W W36T", "yeast surface expression", 0.686]
]}

Could you report yeast surface expression for every entry in the following list?
1. chain 1 G100Y S101E
2. chain 1 Y103V

*A*
0.708
0.701
